Data provenance: ChEMBL document CHEMBL1201862

tested on: SK-MEL-5; assay: NCI tumour cell line growth inhibition, 48 h
Active and inactive are the calls of the source. Rule as the data show it: active = GI50 up to about 1.1 µM and inactive = higher.
Return exactly one item of TRUE = active, FALSE = inactive

Per the assay record, what outcome was assigned to O=C(O)CNn1c(SCC(=O)O)nnc(/C=C/c2c(O)ccc3ccccc23)c1=O ? FALSE

Per the assay record, what outcome was assigned to COc1cc2c(cc1OC)C(=O)/C(=C/c1cc(C)c(O)c(C)c1)C2 ? TRUE

Per the assay record, what outcome was assigned to COC(=O)C1C(OC(=O)c2ccccc2)CC2CCC1N2C(N)=O (centres undefined) ? FALSE

Per the assay record, what outcome was assigned to COC(=O)[C@@]1(C)CCC[C@]2(C(=O)O)C3Cc4occc4[C@H](C)[C@@H]3CCC21 (some centres undefined) ? FALSE

Per the assay record, what outcome was assigned to CCCCCCCC(=O)OCC(COC(=O)C(C)(C)C)OC(=O)Cc1ccccc1 (centres undefined) ? FALSE

Per the assay record, what outcome was assigned to COc1cc(O)c(C(=O)/C=C/c2ccc(O)cc2)cc1Oc1ccc(C(=O)/C=C/c2ccc(O)cc2)c(O)c1 ? FALSE

Per the assay record, what outcome was assigned to C=CCNC(=S)N/C=C(/C(C)=O)C(=O)Nc1ccccc1C ? FALSE

Per the assay record, what outcome was assigned to COc1cc(/C=C2\C(=O)N(c3cc(Cl)ccc3Cl)C(c3ccccc3)S2(=O)=O)cc(OC)c1OC (centres undefined) ? FALSE

Per the assay record, what outcome was assigned to C#C[C@]1(O)CC[C@H]2[C@@H]3CCC4=C/C(=N\OCCN(CC)CC)CC[C@]4(C)[C@H]3CC[C@@]21C ? FALSE

---

test system: HCT-116; test: NCI tumour cell line growth inhibition, 48 h
Calls of active or inactive are those of the source. Rule as the data show it: active = GI50 up to about 1.1 µM and inactive = higher.
test_readout: GI50

Value lookup for GI50; key = CC1(c2cccc(Cl)c2)CC(c2cccc(Cl)c2)=C(C#N)C(=C(C#N)C#N)N1 (stereo not drawn) 16.6 µM (inactive)

Value lookup for GI50; key = COc1ccc2oc(C(=O)O)c3c2c1CCC3CCC(=O)O (stereo not drawn) > 100 µM (inactive)

Value lookup for GI50; key = COC(=O)c1c2c(cc3c1CCC3)CCC2 39.6 µM (inactive)

---

tested on: 786-0; assay: NCI tumour cell line growth inhibition, 48 h
Activity calls are given as the source filed them. Rule as the data show it: active = GI50 up to about 1.1 µM and inactive = higher.
Can you tell me GI50 for the items I'm about to list?

Value lookup for GI50; key = Cc1cc(-c2cscn2)c(O)c([N+](=O)[O-])c1 60.8 µM (inactive)

Value lookup for GI50; key = N#Cc1c(-c2ccccc2)cc(-c2ccccc2)n(C2OCC(O)C(O)C2O)c1=S (stereo unspecified) 25.7 µM (inactive)

Value lookup for GI50; key = O=c1c2ccccc2nc(-c2ccccc2)n1/N=C/c1ccccc1[N+](=O)[O-] 21.9 µM (inactive)

Value lookup for GI50; key = COc1ccccc1NC(=O)C(C#N)=C(SC)SC > 100 µM (inactive)

Value lookup for GI50; key = O=C(O)CNn1c(SCC(=O)O)nnc(/C=C/c2c(O)ccc3ccccc23)c1=O 30.3 µM (inactive)

Value lookup for GI50; key = COC(=O)c1cc2/c(=N/O)c3ccccc3sc2o1 > 100 µM (inactive)

---

Can you tell me GI50 for the items I'm about to list?
system: SNB-19; assay: NCI tumour cell line growth inhibition, 48 h
Calls of active or inactive are those of the source. Rule as the data show it: active = GI50 up to about 1.1 µM and inactive = higher.

Value lookup for GI50; key = O=C(N[C@@H](c1ccccc1)[C@@H](O)C(=O)OCc1ccc2c(c1)OCO2)c1ccccc1 > 100 µM (inactive)

Value lookup for GI50; key = N#Cc1ccc(OC(=O)c2ccc(NC(=N)N)cc2)cc1.c1ccncc1 56.2 µM (inactive)

Value lookup for GI50; key = O=C(/C=C\c1cccc2ccccc12)c1cccs1 12.6 µM (inactive)

Value lookup for GI50; key = COc1ccccc1CNCCCCCNCCCCCCCCCCNCCCCCNCc1ccccc1OC 38.1 µM (inactive)

Value lookup for GI50; key = CN(C)CCc1ccc(Cl)cc1Cl > 100 µM (inactive)

Value lookup for GI50; key = O=C(CSc1c2ccccc2nc2ccccc12)Nc1ccccc1-c1ccccc1NC(=O)CSc1c2ccccc2nc2ccccc12 22.4 µM (inactive)

Value lookup for GI50; key = COC(=O)[C@@]1(C)CCC[C@]2(C(=O)O)C3Cc4occc4[C@H](C)[C@@H]3CCC21 (stereo not given in full) 71.1 µM (inactive)

Value lookup for GI50; key = COC(=O)C1=C(C)NC(C)=C(C(=O)OC)C1c1ccccc1NO > 100 µM (inactive)

Value lookup for GI50; key = COc1cc(C)c(C(=O)/C=C/c2cc(OC)c(O)c(OC)c2)cc1O 18 µM (inactive)

Value lookup for GI50; key = CC1(c2cc3c(cc2Br)OCO3)SCCCS1 47.4 µM (inactive)

Value lookup for GI50; key = CCCCCCCC/C=C\CCCCCCCC(=O)NCCN(CCN)C(=O)CCCCCCC/C=C\CCCCCCCC > 100 µM (inactive)

Value lookup for GI50; key = O=C(O)C(Cl)(c1ccccc1)c1ccccc1 > 100 µM (inactive)

Value lookup for GI50; key = COC(=O)CC(=O)C[P+](c1ccccc1)(c1ccccc1)c1ccccc1 > 218 µM (inactive)

Value lookup for GI50; key = COC(=O)Nc1nc2cc(S(=O)(=O)n3nnc4ccccc43)ccc2[nH]1 29.9 µM (inactive)

Value lookup for GI50; key = Cc1ccc(C(=O)O)c(CC2Cc3c(C)cccc3C2=O)c1 (stereo not given) > 100 µM (inactive)

Value lookup for GI50; key = Cc1ccc(C(=O)Nc2ccc(S(=O)(=O)O)c3cc(S(=O)(=O)O)cc(S(=O)(=O)O)c23)cc1NC(=S)Nc1cc(C(=O)Nc2ccc(S(=O)(=O)O)c3cc(S(=O)(=O)O)cc(S(=O)(=O)O)c23)ccc1C > 75 µM (inactive)

Value lookup for GI50; key = COc1cc(/C=C2\C(=O)N(c3cc(Cl)ccc3Cl)C(c3ccccc3)S2(=O)=O)cc(OC)c1OC (stereo not given) > 100 µM (inactive)

Value lookup for GI50; key = COc1ccc(-c2nc(SCC(=O)N/N=C/c3ccc(O)c(OC)c3)[nH]c2-c2ccc(OC)cc2)cc1 41.1 µM (inactive)

Value lookup for GI50; key = CSc1ncnc2c1cnn2Cc1cnnn1COCC(O)CO (stereo not given) > 100 µM (inactive)

Value lookup for GI50; key = CCOC(=O)C1c2[nH]c3ccccc3c2CCN1C(=O)c1ccc(OC)o1 (stereo not given) > 10 µM (inactive)

---

Can you tell me GI50 for the items I'm about to list?
tested on: MDA-MB-231; experiment: NCI tumour cell line growth inhibition, 48 h
Active and inactive are the calls of the source. No stated cut-off is given here; in the data, active = GI50 up to about 1.1 µM and inactive = higher.

Value lookup for GI50; key = CC[C@@]1(O)C[C@H](OC2CC(N(C)C)C(OC3CC(O)C(OC4CCC(=O)C(C)O4)C(C)O3)C(C)O2)c2c(cc3c(c2O)C(=O)c2c(O)ccc(O)c2C3=O)[C@H]1C(=O)OC (some centres undefined) 0.00288 µM (active)

Value lookup for GI50; key = OCC(O)C(O)C(O)C(/C=N\Nc1ncnc2ccc(Br)cc12)=N/Nc1ncnc2ccc(Br)cc12 (centres undefined) 2.87 µM (inactive)

Value lookup for GI50; key = CCn1c2ccccc2c2ccc(C3C(C(=O)OC)=C(C)NC(C)=C3C(=O)OC)cc21 15.9 µM (inactive)

Value lookup for GI50; key = Clc1ccc(-c2nc(-c3ccc(Cl)cc3)[s+]s2)cc1 46.9 µM (inactive)

Value lookup for GI50; key = O=C1NC(N2CCCCC2)=N/C1=C\c1ccccc1 > 100 µM (inactive)

Value lookup for GI50; key = Cc1ccccc1Nc1nc2c(s1)C(=O)c1ccccc1C2=O 3.41 µM (inactive)

Value lookup for GI50; key = COC(=O)c1c2c(cc3c1CC1(Cc4cc5c(c(C)c4C1)CCC5)C3)CCC2 (centres undefined) > 100 µM (inactive)

Value lookup for GI50; key = COC(=O)c1cc2/c(=N/O)c3ccccc3sc2o1 > 100 µM (inactive)

Value lookup for GI50; key = C[N+](C)(CCNC(=O)c1cccc2cc3ccccc3nc12)Cc1ccc([N+](=O)[O-])s1 > 25 µM (inactive)

---

test system: HOP-92; assay: NCI tumour cell line growth inhibition, 48 h
The source made the active and inactive calls. No stated cut-off is given here; in the data, active = GI50 up to about 1.1 µM and inactive = higher.
Can you tell me GI50 for the items I'm about to list?

Value lookup for GI50; key = Cc1ccccc1C(=O)c1c(O)c2c(c(O)c1Br)CCCC2 23.2 µM (inactive)

Value lookup for GI50; key = O=C(CCc1cccc(O)c1)NCCc1cccc(OCc2ccccc2)c1 14.9 µM (inactive)

Value lookup for GI50; key = NCCSc1nc2ccccc2s1 25.5 µM (inactive)

Value lookup for GI50; key = O=C1OC(c2ccccc2)=N/C1=C/c1cccs1 > 100 µM (inactive)

Value lookup for GI50; key = CC1(C)CCC[C@]2(C)[C@@H]1CC[C@@]13O[C@@H]1C1=C(CO)C(=O)OC1=C[C@@H]23 15.4 µM (inactive)

Value lookup for GI50; key = Cc1cccc(C(C)C)c1NC(=O)CC1C(=O)Nc2ccccc2S1(=O)=O (configuration not stated) 11.8 µM (inactive)

Value lookup for GI50; key = Cc1cc(Cl)cc2c1NC(=O)C2(O)C(C)C(=O)c1ccc(Cl)cc1 (configuration not stated) 33.9 µM (inactive)
